tested_system: S1P1 (Homo sapiens, UniProt P21453)
Sequence (P21453 whole entry): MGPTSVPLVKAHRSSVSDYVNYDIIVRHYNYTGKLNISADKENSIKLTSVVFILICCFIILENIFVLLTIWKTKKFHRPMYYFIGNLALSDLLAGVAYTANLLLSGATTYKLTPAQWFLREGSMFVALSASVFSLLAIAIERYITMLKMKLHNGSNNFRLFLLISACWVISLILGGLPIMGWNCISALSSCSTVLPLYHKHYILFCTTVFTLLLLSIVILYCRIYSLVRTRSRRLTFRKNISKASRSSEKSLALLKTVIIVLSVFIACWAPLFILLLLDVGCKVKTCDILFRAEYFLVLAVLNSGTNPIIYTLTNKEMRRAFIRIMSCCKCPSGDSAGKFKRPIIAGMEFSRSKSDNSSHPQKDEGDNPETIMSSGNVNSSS
protocol_text: S1P1 internalization assay in S1P1-U2OS cells (cell imaging)
Assay type: cell-based
experimental_parameters: U2OS cells expressing S1P1-EGFP, 1 hour
value_type: EC50 (µM)
Give the value, in units of µM, as a plain number.

Request the reported EC50 associated with `Cc1ccccc1-c1ccc(-c2nc(-c3ccc(CN(C)CC(=O)O)c(Cl)c3)no2)cc1C(F)(F)F` 0.0233

---
Dear colleague, I am looking for the recorded EC50 of the following compound: `Cc1ccccc1-c1ccc(-c2nc(-c3ccc(CN(CC(=O)O)C(C)C)cc3)no2)cc1C(F)(F)F` 0.0248

Same lookup for `CCN(CCC(=O)O)Cc1cccc(-c2noc(-c3ccc(-c4ccccc4C)c(C(F)(F)F)c3)n2)c1` , please. 0.00897

Another compound to check: `CN(CC(=O)O)Cc1cc(F)cc(-c2noc(-c3ccc(-c4ccccc4C(F)(F)F)c(Cl)c3)n2)c1` 0.0409

# credit: patent US8802704B2
